target: yeast proteasome β1/β1' (PGPH) (Saccharomyces cerevisiae, UniProt P38624); assay: Proteasome assay, PGPH activity (fluorogenic substrate Z-Leu-Leu-Gly-βNA); type: biochemical; conditions: 6.67 nM proteasome, Tris-buffer pH 7.5, incubated with inhibitor 1 h at 37°C, Z-Leu-Leu-Gly-βNA 40 µM, read-out: Inhibition of yeast proteasome (IC50) β1/β1'
Where a SMILES comes first, the peptide text is derived from it. [ ]: non-standard residue; d: D form. Nle = CCCC[C@H](N)C(=O)O
Observed Property: IC50

Prompt: Indicate its recorded IC50; the molecule in question is CCCC[C@@H](C=O)NC(=O)[C@H](CC(C)C)NC(=O)[C@H](CC(C)C)NC(C)=O [Inhibitor 1, Ac-Leu-Leu-Nle-H] (Ac-Leu-Leu-[Nle]-aldehyde)
Completion: > 100 µM

* * *

target: yeast proteasome β2/β2' (trypsin-like activity) (Saccharomyces cerevisiae, UniProt P25043); test: Proteasome assay, trypsin-like activity (fluorogenic substrate Bz-Phe-Val-Arg-AMC); format: biochemical; set-up: Three of the seven different β-type subunits are processed at the threonine-1 residue; conditions: 5.56 nM proteasome, Tris-buffer pH 7.5, incubated with inhibitor 1 h at 37°C, Bz-Phe-Val-Arg-AMC 8 µM, read-out: Inhibition of yeast proteasome (IC50) β2/β2'
pIC50: −log10 of the molar value. Where a SMILES comes first, the peptide text is derived from it. [ ]: non-standard residue; d: D form. Nle = CCCC[C@H](N)C(=O)O
Observed Property: pIC50

Prompt: Indicate its recorded pIC50; the compound in question is CCCC[C@@H](C=O)NC(=O)[C@H](CC(C)C)NC(=O)[C@H](CC(C)C)NC(C)=O [Inhibitor 1, Ac-Leu-Leu-Nle-H] (Ac-Leu-Leu-[Nle]-aldehyde)
Completion: < 4.00

* * *

biological target: yeast proteasome β5/β5' (chymotrypsin-like activity) (Saccharomyces cerevisiae, UniProt P30656); experiment: Proteasome assay, chymotrypsin-like activity (fluorogenic substrate Suc-Leu-Leu-Val-Tyr-AMC); type: biochemical; set-up: Three of the seven different β-type subunits are processed at the threonine-1 residue; details: 1.11 nM proteasome, Tris-buffer pH 7.5, incubated with inhibitor 1 h at 37°C, Suc-Leu-Leu-Val-Tyr-AMC 8 µM, read-out: Inhibition of yeast proteasome (IC50) β5/β5'
Where a SMILES comes first, the peptide text is derived from it. [ ]: non-standard residue; d: D form. Nle = CCCC[C@H](N)C(=O)O
Observed Property: IC50 (µM)
Use µM as the unit, but write only the number.

Prompt: Indicate its recorded IC50; the compound in question is CCCC[C@@H](C=O)NC(=O)[C@H](CC(C)C)NC(=O)[C@H](CC(C)C)NC(C)=O [Inhibitor 1, Ac-Leu-Leu-Nle-H] (Ac-Leu-Leu-[Nle]-aldehyde)
Completion: 2.1

* * *

molecular target: yeast proteasome β2/β2' (trypsin-like activity) (Saccharomyces cerevisiae); assay: Proteasome assay, trypsin-like activity (fluorogenic substrate Bz-Phe-Val-Arg-AMC); assay type: biochemical; parameters: endogenous in cells; host or cells: Saccharomyces cerevisiae (isolated native complex; purification, strain and supplier not described); conditions: 5.56 nM proteasome, Tris-buffer pH 7.5, incubated with inhibitor 1 h at 37°C, Bz-Phe-Val-Arg-AMC 8 µM, read-out: Inhibition of yeast proteasome (IC50) β2/β2'
Reported values of IC50 for individual entries

>>> reported_result("HOOC-(CH2)2-CO-NH-(PEG)18-25-NH-(CH2)2-CO-Leu-Leu-Nle-H [Inhibitor 2]")
"> 100 µM"

Now consider a different substance.
Prompt: Indicate its recorded IC50; the substance in question is (PEG)18-25-[NH-CO-(CH2)2-CO-Leu-Leu-Nle-H]2 [Inhibitor 3]
Completion: > 100 µM

* * *

target: yeast proteasome β5/β5' (chymotrypsin-like activity) (Saccharomyces cerevisiae); test: Proteasome assay, chymotrypsin-like activity (fluorogenic substrate Suc-Leu-Leu-Val-Tyr-AMC); assay type: biochemical; set-up: endogenous in cells; host or cells: Saccharomyces cerevisiae (isolated native complex; purification, strain and supplier not described); conditions: chymotrypsin-like activity; 1.11 nM proteasome, Tris-buffer pH 7.5, incubated with inhibitor 1 h at 37°C; Suc-Leu-Leu-Val-Tyr-AMC 8 µM; read-out: Inhibition of yeast proteasome (IC50) β5/β5'
Observed Property: pIC50
Give only the number. pIC50 is defined as minus log10 of concentration in molar units.

>>> reported_result("(PEG)18-25-[NH-CO-(CH2)2-CO-Leu-Leu-Nle-H]2 [Inhibitor 3]")
7.77

Prompt: Find pIC50 for HOOC-(CH2)2-CO-NH-(PEG)18-25-NH-(CH2)2-CO-Leu-Leu-Nle-H [Inhibitor 2] on yeast proteasome β5/β5' (chymotrypsin-like activity) (Saccharomyces cerevisiae) and write it down.
Completion: 5.74
